Data provenance is the supplement of paper PMC13380429.

Answer each item with its documented drug sensitivity score.
Test system: Caco-2
assay-method-text: drug sensitivity score (DSS) for viability; higher = more toxic; extreme values may be limits of the assay
condition: 72 h
Numbers only.

Previously resolved entries follow.
Query string: Bench note: what drug sensitivity score did CCC(C)(CN(C)C)OC(=O)c1ccccc1 (stereo not given) show?
Result string: 0

Query string: Bench note: what drug sensitivity score did CCCCCCCCCCCC[N+](C)(C)CCOc1ccccc1 show?
Result string: 4.9

Value sought for every listed compound: drug sensitivity score.
1. Nc1nc(/C(=C/CC(=O)O)C(=O)N[C@@H]2C(=O)N3C(C(=O)O)=CCS[C@H]23)cs1
2. Cn1c(=O)n(-c2ccc(C(C)(C)C#N)cc2)c2c3cc(-c4cnc5ccccc5c4)ccc3ncc21
3. CN1CCN(Cc2ccc(Nc3ncc(Cl)c(Nc4ccccc4S(=O)(=O)N(C)C)n3)cc2)CC1
4. CCCCCCCCCCC(=O)O[C@H]1CC[C@H]2[C@@H]3CCC4=CC(=O)CC[C@]4(C)[C@H]3CC[C@]12C [Testosterone (undecanoate)]
5. CNNCc1ccc(C(=O)NC(C)C)cc1
6. O=S(=O)(F)Cc1ccccc1 [phenylmethylsulfonyl-fluoride]
7. O=P1(N(CCCl)CCCl)NCCCO1 (stereo not given) [cyclophosphamide]

Result string:
1: 0; 2: 13.4; 3: 5.9; 4: 0; 5: 0; 6: 0; 7: 0

Value sought for every listed compound: drug sensitivity score.
1. CCn1c(-c2nonc2N)nc2cncc(C(=O)N3CC[C@H](N)C3)c21
2. COc1cc(C[C@H](C)[C@H](C)Cc2ccc3c(c2)OCO3)ccc1O

Result string:
0.5
0

Value sought for every listed compound: drug sensitivity score.
1. CNc1ccc([N+](=O)[O-])cc1-n1cnc(-c2ccc(C(F)(F)F)cc2)c1
2. CON
3. CC(C)N(C[C@H]1O[C@@H](n2cnc3c(N)ncnc32)[C@H](O)[C@@H]1O)[C@H]1C[C@@H](CCc2nc3cc(C(C)(C)C)ccc3[nH]2)C1
4. N=C(N)NC(=N)NCCc1ccccc1
5. Cc1ccc(-c2nc3ccc(C)cn3c2CC(=O)N(C)C)cc1

Result string:
1. 0
2. 0
3. 0
4. 0.5
5. 0

Value sought for every listed compound: drug sensitivity score.
1. CN1CCC(c2c[nH]c3ccc(O)cc23)CC1
2. O=C(c1ccc(OCCN2CCCCC2)cc1)c1c(-c2ccc(O)cc2)sc2cc(O)ccc12

Result string:
[0, 4.6]

Value sought for every listed compound: drug sensitivity score.
1. CCCCCCCCCCCCCCCCCCCCCC(=O)O
2. NS(=O)(=O)c1cc2c(cc1C(F)(F)F)NCNS2(=O)=O [hydroflumethiazide]

Result string:
1: 0; 2: 0
